molecular target: human β2AR (β2-adrenergic receptor) (Homo sapiens); construct: gene ADRB2; full-length receptor cDNA stably expressed in CHW-1102 (CHW-β2) cells, ~2,000 fmol/mg; assay: cAMP accumulation, competitive immunoassay; type: cell-based
Sequence (P07550 whole entry): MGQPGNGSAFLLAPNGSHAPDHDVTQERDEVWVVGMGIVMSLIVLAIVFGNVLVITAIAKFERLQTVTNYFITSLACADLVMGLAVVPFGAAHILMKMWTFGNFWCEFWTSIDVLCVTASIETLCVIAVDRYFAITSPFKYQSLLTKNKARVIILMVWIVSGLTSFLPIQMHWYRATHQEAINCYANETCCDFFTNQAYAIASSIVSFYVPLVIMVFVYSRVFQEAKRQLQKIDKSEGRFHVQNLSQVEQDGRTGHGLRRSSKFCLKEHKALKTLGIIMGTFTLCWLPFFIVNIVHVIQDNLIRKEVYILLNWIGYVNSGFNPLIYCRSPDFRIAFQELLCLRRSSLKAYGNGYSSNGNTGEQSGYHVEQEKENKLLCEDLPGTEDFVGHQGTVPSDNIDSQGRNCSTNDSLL
Endpoint name: EC50 (µM)
Give the quantity in µM, number only.

Input line: Look up EC50 with human β2AR (β2-adrenergic receptor) (Homo sapiens) for this compound: COc1ccc(CC2=N[C@@H](CCCCN3C[C@H](Cc4ccc(O)cc4)N(CCCCC4CCCCC4)C3=O)CN2)cc1 [C1-S]
Output line: 4.23
